system_name: hERG channel (Homo sapiens, UniProt Q12809)
Construct: expressed in transfected cells; host or cells: CHO (CHOhERG)
Sequence (Q12809 whole entry): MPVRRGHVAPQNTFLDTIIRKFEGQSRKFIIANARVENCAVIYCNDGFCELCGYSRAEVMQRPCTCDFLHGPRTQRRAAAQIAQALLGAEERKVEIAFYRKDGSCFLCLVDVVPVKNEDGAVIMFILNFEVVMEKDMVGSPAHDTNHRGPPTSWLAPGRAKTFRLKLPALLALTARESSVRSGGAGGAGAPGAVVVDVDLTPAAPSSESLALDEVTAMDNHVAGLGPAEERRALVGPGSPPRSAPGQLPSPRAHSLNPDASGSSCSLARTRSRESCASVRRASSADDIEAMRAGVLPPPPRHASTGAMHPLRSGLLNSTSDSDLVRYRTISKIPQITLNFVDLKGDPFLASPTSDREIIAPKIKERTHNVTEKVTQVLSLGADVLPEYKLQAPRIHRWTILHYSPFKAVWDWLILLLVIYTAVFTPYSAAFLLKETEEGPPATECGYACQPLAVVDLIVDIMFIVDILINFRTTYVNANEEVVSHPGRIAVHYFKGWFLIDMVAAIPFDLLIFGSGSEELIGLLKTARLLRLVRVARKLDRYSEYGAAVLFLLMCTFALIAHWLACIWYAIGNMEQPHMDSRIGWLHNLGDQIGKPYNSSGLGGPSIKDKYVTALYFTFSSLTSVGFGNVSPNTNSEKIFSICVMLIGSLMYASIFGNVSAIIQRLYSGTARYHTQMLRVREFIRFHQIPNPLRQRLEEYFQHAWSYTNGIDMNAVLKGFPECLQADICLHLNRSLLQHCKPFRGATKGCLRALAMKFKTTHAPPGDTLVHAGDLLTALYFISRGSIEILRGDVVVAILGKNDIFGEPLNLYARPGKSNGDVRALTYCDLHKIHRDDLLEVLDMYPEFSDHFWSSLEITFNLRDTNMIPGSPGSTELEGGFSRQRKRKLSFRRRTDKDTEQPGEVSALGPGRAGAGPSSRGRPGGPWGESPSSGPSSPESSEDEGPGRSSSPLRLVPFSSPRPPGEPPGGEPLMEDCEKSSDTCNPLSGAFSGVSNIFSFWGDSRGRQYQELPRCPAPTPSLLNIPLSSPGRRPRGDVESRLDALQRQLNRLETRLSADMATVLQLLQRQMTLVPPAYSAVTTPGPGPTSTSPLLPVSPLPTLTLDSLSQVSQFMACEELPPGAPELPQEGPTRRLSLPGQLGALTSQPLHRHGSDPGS
experiment_description: hERG channel inhibition assay (patch-clamp, CHOhERG cells)
Assay type: cell-based
condition_description: safety ratio, hERG IC20 over HEK/hTLR7 IC50
Recorded hERG IC20/TLR7 IC50 by entry

- smiles_entry: "C[C@H]1CN(c2ccnc3c2cnn3C)Cc2ccc(OC[C@H]3CNCCN3)cc21"
  system_name: "hERG channel (Homo sapiens, UniProt Q12809)"
  hERG IC20/TLR7 IC50: ">1250.0"
- smiles_entry: "C[C@H]1CN(c2ccnc3c2cnn3C)Cc2ccc(N3C[C@@H]4CNCCN4C3=O)cc21"
  system_name: "hERG channel (Homo sapiens, UniProt Q12809)"
  hERG IC20/TLR7 IC50: ">666.7"
- smiles_entry: "C[C@H]1CN(c2ccnc3c2cnn3C)Cc2ccc(N3CC4(CNC4)CC3=O)cc21"
  system_name: "hERG channel (Homo sapiens, UniProt Q12809)"
  hERG IC20/TLR7 IC50: ">384.6"
- smiles_entry: "CO[C@@H]1CN(c2ccc3c(c2)[C@@H](C)CN(c2ccnc4c2cnn4C)C3)C[C@H]1N"
  system_name: "hERG channel (Homo sapiens, UniProt Q12809)"
  hERG IC20/TLR7 IC50: 2066.7
- smiles_entry: "C[C@H]1CN(c2ccnc3c2cnn3C)Cc2ccc(OC[C@@H]3CNCCN3)cc21"
  system_name: "hERG channel (Homo sapiens, UniProt Q12809)"
  hERG IC20/TLR7 IC50: 787.5
- smiles_entry: "C[C@H]1CN(c2ccnc3c2cnn3C)Cc2ccc(OC3CN(C4CCNCC4)C3)cc21"
  system_name: "hERG channel (Homo sapiens, UniProt Q12809)"
  hERG IC20/TLR7 IC50: 728.6
- smiles_entry: "C[C@H]1CN(c2ccnc3c2cnn3C)Cc2ccc(N3CC4(CCNCC4)CC3=O)cc21"
  system_name: "hERG channel (Homo sapiens, UniProt Q12809)"
  hERG IC20/TLR7 IC50: ">2000.0"
- smiles_entry: "Cn1ncc2c(N3CCc4cc(N5CCNCC5)ccc4C3)ccnc21"
  system_name: "hERG channel (Homo sapiens, UniProt Q12809)"
  hERG IC20/TLR7 IC50: ">526.3"
- smiles_entry: "C[C@H]1CN(c2ccnc3c2cnn3C)Cc2ccc(OCCN3CCNCC3)cc21"
  system_name: "hERG channel (Homo sapiens, UniProt Q12809)"
  hERG IC20/TLR7 IC50: ">1250.0"
- smiles_entry: "Cc1cc(N2Cc3ccc(OC[C@@H]4CNCCN4)cc3[C@@H](C)C2)c2cnn(C)c2n1"
  system_name: "hERG channel (Homo sapiens, UniProt Q12809)"
  hERG IC20/TLR7 IC50: 354.2
- smiles_entry: "C[C@H]1CN(c2ccnc3c2cnn3C)Cc2ccc(N3CCNCC3)cc21"
  system_name: "hERG channel (Homo sapiens, UniProt Q12809)"
  hERG IC20/TLR7 IC50: 2133.3
- smiles_entry: "Cc1cc(N2Cc3cnc(OCCN4CCNCC4)cc3[C@@H](C)C2)c2cnn(C)c2n1"
  system_name: "hERG channel (Homo sapiens, UniProt Q12809)"
  hERG IC20/TLR7 IC50: ">526.3"
- smiles_entry: "C[C@H]1CN(c2ccnc3c2cnn3C)Cc2ccc(O[C@@H]3C[C@H]4CNCCN4C3)cc21"
  system_name: "hERG channel (Homo sapiens, UniProt Q12809)"
  hERG IC20/TLR7 IC50: ">3333.3"
